- Experimental Target: human TRPV1 (Homo sapiens (Human))
- Sequence (Q8NER1 whole entry, looked up): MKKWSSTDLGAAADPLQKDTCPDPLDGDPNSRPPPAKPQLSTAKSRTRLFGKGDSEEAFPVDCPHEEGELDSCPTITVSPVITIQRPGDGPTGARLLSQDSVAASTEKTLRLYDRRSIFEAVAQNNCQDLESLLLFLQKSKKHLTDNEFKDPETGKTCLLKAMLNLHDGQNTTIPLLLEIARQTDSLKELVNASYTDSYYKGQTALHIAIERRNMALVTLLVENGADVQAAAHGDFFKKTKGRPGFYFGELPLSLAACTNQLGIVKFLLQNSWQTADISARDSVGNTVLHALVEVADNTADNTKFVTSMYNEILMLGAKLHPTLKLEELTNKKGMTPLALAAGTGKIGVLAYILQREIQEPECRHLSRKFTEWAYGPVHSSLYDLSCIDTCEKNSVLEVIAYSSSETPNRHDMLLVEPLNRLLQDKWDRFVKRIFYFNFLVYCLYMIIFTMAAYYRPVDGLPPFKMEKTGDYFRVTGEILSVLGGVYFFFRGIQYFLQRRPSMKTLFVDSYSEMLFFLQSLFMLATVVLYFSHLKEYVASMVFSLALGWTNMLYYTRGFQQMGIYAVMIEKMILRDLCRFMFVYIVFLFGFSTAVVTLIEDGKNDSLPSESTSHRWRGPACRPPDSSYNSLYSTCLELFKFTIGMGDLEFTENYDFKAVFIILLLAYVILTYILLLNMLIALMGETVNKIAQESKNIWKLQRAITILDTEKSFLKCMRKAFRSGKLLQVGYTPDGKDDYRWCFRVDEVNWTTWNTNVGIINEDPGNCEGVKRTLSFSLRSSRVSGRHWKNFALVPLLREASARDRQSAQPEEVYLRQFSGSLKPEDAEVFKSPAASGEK
- Assay Text: Human TRPV1 heat-based assay, hTRPV1/CHO cells (hHeat-CHO)
- Assay type: cell-based
- Test Context: temperature ramp 25 to 45 °C, mean ± SEM
- Description: Human TRPV1 Heat-based Assay: CHO cells stably expressing human TRPV1 (hTRPV1) were used. […] The plates were then placed inside an ABI7500 Fast Real-Time PCR instrument (Applied Biosystems) to read fluorescence at different temperatures using 7500 software, version 2.0.2 (Applied Biosystems). […] [Ca^2+], response of hTRPV1/CHO cells to heat was determined as: [fluorescence read at 45° C.−fluorescence read at 25° C.]. […]
Response field label: string, one of true (1) (IC50 strictly below 300 nM) or false (0).

{"Compound": "C[C@H](O)[C@@H](O)c1cnc(N2CCN(C(=O)Nc3nc4ccc(F)cc4s3)CC2)c(F)c1 [C125(r)]", "Experimental Target": "human TRPV1 (Homo sapiens (Human))", "Qualitative Label": "false (0)"}
{"Compound": "C[C@H](O)[C@@H](O)c1cnc(N2CCN(C(=O)Nc3nc4ccc(F)cc4s3)CC2)c(Cl)c1 [C4(r)]", "Experimental Target": "human TRPV1 (Homo sapiens (Human))", "Qualitative Label": "true (1)"}
{"Compound": "C[C@H](O)[C@@H](O)c1cnc(N2CCN(C(=O)Nc3nc4ccc(Cl)cc4s3)CC2)c(F)c1 [C123(r)]", "Experimental Target": "human TRPV1 (Homo sapiens (Human))", "Qualitative Label": "true (1)"}
{"Compound": "C[C@@H]1CN(C(=O)Nc2nc3ccc(F)cc3s2)CCN1c1ncc([C@H](O)CO)cc1F", "Experimental Target": "human TRPV1 (Homo sapiens (Human))", "Qualitative Label": "false (0)"}
{"Compound": "C[C@H]1CN(c2ncc([C@H](O)CO)cc2F)CCN1C(=O)Nc1nc2cc(F)ccc2s1", "Experimental Target": "human TRPV1 (Homo sapiens (Human))", "Qualitative Label": "false (0)"}
{"Compound": "Cc1cc2nc(NC(=O)N3CCN(c4ncc([C@H](O)[C@H](C)O)cc4F)CC3)sc2cc1C [C170(r)]", "Experimental Target": "human TRPV1 (Homo sapiens (Human))", "Qualitative Label": "true (1)"}
